test system: T1, mouse serum albumin (mouse, UniProt P07724 25-608)
T1 construct: biotinylated MSA (about 2 biotins per molecule) in the capture ELISA; also called MSA
T1 sequence (P07724 25-608 limits assumed): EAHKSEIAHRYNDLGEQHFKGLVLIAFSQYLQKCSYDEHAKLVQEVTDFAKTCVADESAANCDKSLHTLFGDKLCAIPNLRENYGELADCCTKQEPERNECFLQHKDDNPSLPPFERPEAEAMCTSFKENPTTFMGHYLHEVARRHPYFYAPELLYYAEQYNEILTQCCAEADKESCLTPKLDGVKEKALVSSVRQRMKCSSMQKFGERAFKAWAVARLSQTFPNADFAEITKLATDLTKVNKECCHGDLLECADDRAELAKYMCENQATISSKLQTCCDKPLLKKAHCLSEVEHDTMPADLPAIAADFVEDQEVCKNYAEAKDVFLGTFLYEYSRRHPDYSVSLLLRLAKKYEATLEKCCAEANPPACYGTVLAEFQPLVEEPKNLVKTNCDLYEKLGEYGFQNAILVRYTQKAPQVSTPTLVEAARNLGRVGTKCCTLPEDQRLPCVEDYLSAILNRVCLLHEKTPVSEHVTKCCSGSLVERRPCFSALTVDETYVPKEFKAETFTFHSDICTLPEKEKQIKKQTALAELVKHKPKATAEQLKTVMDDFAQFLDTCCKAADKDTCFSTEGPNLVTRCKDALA
method: capture ELISA: dAb on protein L, biotinylated MSA, streptavidin-HRP
readout name: binding result

binder	readout name	data value
anti-serum albumin Vκ dAb clones 38, 54 (other) VL: DIQMTQSPSSLSASVGDRVTITCRASQSISSYLNWYQQKPGKAPKLLIYRASPLQSGVPSRFSGSGSGTDFTLTISSLQPEDFATYYCQQTYRIPPTFGQGTKVEIK	binding result	binds
anti-serum albumin Vκ dAb clones 30, 35 (other) VL: DIQMTQSPSSLSASVGDRVTITCRASQSIRRYLKWYQQKPGKAPKLLIYQASVLQSGVPSRFSGSGSGTDFTLTISSLQPEDFATYYCQQGLYPPITFGQGTKVEIK	binding result	binds
anti-serum albumin Vκ dAb clones 2, 4, 7, 41 (other) VL: DIQMTQSPSSLSASVGDRVTITCRASQSISSYLNWYQQKPGKAPKLLIYRASPLQSGVPSRFSGSGSGTDFTLTISSLQPEDFATYYCQQTYSVPPTFGQGTKVEIK	binding result	binds
anti-serum albumin Vκ dAb clones 46, 47, 52, 56 (other, same printed CDRs as clone 55) VL: DIQMTQSPSSLSASVGDRVTITCRASQSIFKSLKWYQQKPGKAPKLLIYNASYLQSGVPSRFSGSGSGTDFTLTISSLQPEDFATYYCQQVVYWPVTFGQGTKVEIK	binding result	binds
